# STUDY_SYSTEM: Insulin receptor (Mus musculus, UniProt P15208)
# Sequence (P15208 28-748 limits assumed): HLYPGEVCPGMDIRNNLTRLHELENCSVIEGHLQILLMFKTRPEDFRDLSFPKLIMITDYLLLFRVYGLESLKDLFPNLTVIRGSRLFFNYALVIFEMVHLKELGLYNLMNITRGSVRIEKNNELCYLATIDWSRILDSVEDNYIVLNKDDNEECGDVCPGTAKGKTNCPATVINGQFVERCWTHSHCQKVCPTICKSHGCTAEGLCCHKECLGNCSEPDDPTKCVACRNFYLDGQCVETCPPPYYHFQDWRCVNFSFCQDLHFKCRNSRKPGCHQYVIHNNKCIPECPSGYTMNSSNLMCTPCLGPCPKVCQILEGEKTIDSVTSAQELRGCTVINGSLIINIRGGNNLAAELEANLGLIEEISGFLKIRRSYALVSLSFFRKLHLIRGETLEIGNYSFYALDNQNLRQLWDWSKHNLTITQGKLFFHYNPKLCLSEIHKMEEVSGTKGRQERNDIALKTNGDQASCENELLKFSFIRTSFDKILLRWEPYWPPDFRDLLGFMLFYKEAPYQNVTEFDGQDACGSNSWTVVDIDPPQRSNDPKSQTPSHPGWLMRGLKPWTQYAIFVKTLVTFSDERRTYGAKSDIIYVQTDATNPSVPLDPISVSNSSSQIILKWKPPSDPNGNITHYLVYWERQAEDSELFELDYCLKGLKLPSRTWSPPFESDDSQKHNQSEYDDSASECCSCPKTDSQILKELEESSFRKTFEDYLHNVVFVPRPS
# Sequence (P15208 753-1372 limits assumed): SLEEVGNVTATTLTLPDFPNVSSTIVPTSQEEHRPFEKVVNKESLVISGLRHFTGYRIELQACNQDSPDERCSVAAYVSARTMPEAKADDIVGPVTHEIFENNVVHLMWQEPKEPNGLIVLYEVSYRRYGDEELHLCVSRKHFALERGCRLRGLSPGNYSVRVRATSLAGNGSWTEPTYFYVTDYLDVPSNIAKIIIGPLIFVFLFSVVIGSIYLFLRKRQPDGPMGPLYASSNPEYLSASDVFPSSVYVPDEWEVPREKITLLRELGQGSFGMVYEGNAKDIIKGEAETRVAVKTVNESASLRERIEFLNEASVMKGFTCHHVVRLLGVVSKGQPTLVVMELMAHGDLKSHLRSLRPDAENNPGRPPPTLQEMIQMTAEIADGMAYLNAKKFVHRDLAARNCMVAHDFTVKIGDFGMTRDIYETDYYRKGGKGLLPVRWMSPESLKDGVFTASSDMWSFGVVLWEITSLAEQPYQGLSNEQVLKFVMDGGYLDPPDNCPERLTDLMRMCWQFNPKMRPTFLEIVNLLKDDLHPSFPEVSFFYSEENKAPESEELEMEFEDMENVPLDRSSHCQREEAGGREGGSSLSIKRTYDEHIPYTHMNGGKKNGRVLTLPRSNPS
# EXPERIMENTAL_DETAILS: Activation of insulin receptor tyrosine kinase in mouse 3T3-L1 cells assessed as increase in 2-deoxy-D-[14C]glucose transport in presence of insulin
pEC50: −log10 of the molar value.
Below: a set of entries, each annotated with reported pEC50.
ASSAY_METRIC: pEC50

> print(dat)
                         structure.as.smiles                              study.system  assay.metric  inequality.symbol  assay.result
 1  O=C(O)c1cc(NS(=O)(=O)c2ccc3ccc(NCCNc4ccc5ccc(S(=O)(=O)Nc6ccc(Cl)c(C(=O)O)c6)cc5c4)cc3c2)ccc1Cl  Insulin receptor (Mus musculus, UniProt P15208)         pEC50                  <          3.70
 2  O=C(Nc1ccc2ccc(S(=O)(=O)Nc3cccc(S(=O)(=O)O)c3)cc2c1)Nc1ccc2ccc(S(=O)(=O)Nc3cccc(S(=O)(=O)O)c3)cc2c1  Insulin receptor (Mus musculus, UniProt P15208)         pEC50                  =          4.66
 3  O=C(Nc1ccc2ccc(S(=O)(=O)Nc3cccc(C(=O)O)c3O)cc2c1)Nc1ccc2ccc(S(=O)(=O)Nc3cccc(C(=O)O)c3O)cc2c1  Insulin receptor (Mus musculus, UniProt P15208)         pEC50                  =          3.82
 4  O=C(Nc1ccc2c(O)cc(S(=O)(=O)Nc3ccc(C(=O)O)cc3)cc2c1)Nc1ccc2c(O)cc(S(=O)(=O)Nc3ccc(C(=O)O)cc3)cc2c1  Insulin receptor (Mus musculus, UniProt P15208)         pEC50                  =          3.99
 5  O=C(Nc1ccc2ccc(S(=O)(=O)Nc3ccc(C(=O)O)cc3)cc2c1)Nc1ccc2ccc(S(=O)(=O)Nc3ccc(C(=O)O)cc3)cc2c1  Insulin receptor (Mus musculus, UniProt P15208)         pEC50                  =          3.74
 6  O=C(O)c1cc(NS(=O)(=O)c2ccc3ccc(NC(=S)Nc4ccc5ccc(S(=O)(=O)Nc6ccc(Cl)c(C(=O)O)c6)cc5c4)cc3c2)ccc1Cl  Insulin receptor (Mus musculus, UniProt P15208)         pEC50                  =          3.79
 7  O=C(Nc1ccc2c(O)cc(S(=O)(=O)Nc3ccc(O)c(C(=O)O)c3)cc2c1)Nc1ccc2c(O)cc(S(=O)(=O)Nc3ccc(O)c(C(=O)O)c3)cc2c1  Insulin receptor (Mus musculus, UniProt P15208)         pEC50                  =          4.37
 8  O=C(Nc1ccc2ccc(C(=O)Nc3cccc(C(=O)O)c3)cc2c1)Nc1ccc2ccc(C(=O)Nc3cccc(C(=O)O)c3)cc2c1  Insulin receptor (Mus musculus, UniProt P15208)         pEC50                  <          3.70
 9  O=C(O)Cc1cccc(NS(=O)(=O)c2cc(O)c3ccc(NC(=O)Nc4ccc5c(O)cc(S(=O)(=O)Nc6cccc(CC(=O)O)c6)cc5c4)cc3c2)c1  Insulin receptor (Mus musculus, UniProt P15208)         pEC50                  <          3.70
10  O=C(Nc1ccc2ccc(S(=O)(=O)Nc3ccc(S(=O)(=O)O)cc3)cc2c1)Nc1ccc2ccc(S(=O)(=O)Nc3ccc(S(=O)(=O)O)cc3)cc2c1  Insulin receptor (Mus musculus, UniProt P15208)         pEC50                  =          4.03
11  O=C(Nc1ccc2ccc(S(=O)(=O)Nc3ccc([N+](=O)[O-])c(C(=O)O)c3)cc2c1)Nc1ccc2ccc(S(=O)(=O)Nc3ccc([N+](=O)[O-])c(C(=O)O)c3)cc2c1  Insulin receptor (Mus musculus, UniProt P15208)         pEC50                  =          4.40
